These entries and their values trace back to patent US8383637B2.

Reported % Inhibition by item:
- tgt: β-secretase(BACE) (Homo sapiens)
- Construct: purchased Panvera
- experimental-protocol: BACE % Inhibition Assay ((Aedens)-[…]-(Dabcyl K-amide) substrate)
- Type: biochemical
- condition-description: 10 μM test compound; % error ±10%

Item CN(C(=O)[C@H]1CCCC[C@H]1N1Cc2cc(Oc3ccccc3)ccc2N=C1N)C1CCCCC1 : provide % Inhibition
<30%

----------
- tgt: β-secretase(BACE) (Homo sapiens, UniProt P56817)
- Construct: purchased Panvera
- Sequence (P56817 46-501): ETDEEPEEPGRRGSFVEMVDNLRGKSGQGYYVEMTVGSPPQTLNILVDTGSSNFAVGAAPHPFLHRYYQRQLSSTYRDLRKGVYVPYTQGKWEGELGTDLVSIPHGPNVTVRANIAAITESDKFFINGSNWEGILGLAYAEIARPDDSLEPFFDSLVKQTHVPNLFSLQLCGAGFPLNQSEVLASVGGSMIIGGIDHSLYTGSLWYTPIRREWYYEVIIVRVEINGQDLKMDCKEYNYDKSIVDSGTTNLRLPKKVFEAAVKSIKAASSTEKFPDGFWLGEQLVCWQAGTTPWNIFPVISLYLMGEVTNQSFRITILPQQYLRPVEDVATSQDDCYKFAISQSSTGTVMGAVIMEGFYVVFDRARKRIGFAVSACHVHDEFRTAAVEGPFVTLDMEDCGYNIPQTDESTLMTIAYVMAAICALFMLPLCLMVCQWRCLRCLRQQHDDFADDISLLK
- experimental-protocol: BACE FS1% Inhibition Assay
- Type: biochemical
- condition-description: 1 μM test compound; FS1 substrate; read-out: % Inhibition (FS) 1 μM
quantity-measured: inhibition at 1 µM (%)

Past entries and their recorded results:
compound="NC1=Nc2ccc(-c3c(F)cccc3F)cc2CN1CCNC(=O)C1CCCCC1 [Compound 629]" quantity_measured="inhibition at 1 µM" quantitative_result=72
compound="COc1ccccc1-c1ccc2c(c1)CN(Cc1cccc(C(=O)N(C)C3CCCCC3)c1)C(N)=N2 [Compound 167]" quantity_measured="inhibition at 1 µM" quantitative_result=112
compound="NC1=Nc2ccc(-c3ccccc3)cc2CN1CCNC(=O)C1CCCCC1 [Compound 515]" quantity_measured="inhibition at 1 µM" quantitative_result=66

I = Cc1cccc(Oc2ccc3c(c2)CN(Cc2cccc(C(=O)N(C)C4CCCCC4)c2)C(N)=N3)c1 [Compound 209]
II = COc1ccccc1-c1ccc2c(c1)CN(C(CCC(=O)N(C)C1CCCCC1)C1CCCCC1)C(N)=N2 (centres unmarked) [Compound 227]
Which value of inhibition at 1 µM is numerically greater: that of I or that of II ? Answer by stating the label of the chosen item.
II
(II: 109%, I: 58%)
